# test protocol: NanoBRET (MAPK3, SGC Frankfurt)
# run conditions: Homo sapiens
property measured: pIC50
Quick note: pIC50 values are minus log10 of concentrations in mol/L.

Answer with reported pIC50 of `C[C@@H](NC(=O)Nc1cc2[nH]ncc2c(CO)n1)c1ccccc1`
5.17
